Reference for the values: patent US12180213B2

Target: hERG channel (Homo sapiens (Human), UniProt Q12809)
Sequence (Q12809 whole entry): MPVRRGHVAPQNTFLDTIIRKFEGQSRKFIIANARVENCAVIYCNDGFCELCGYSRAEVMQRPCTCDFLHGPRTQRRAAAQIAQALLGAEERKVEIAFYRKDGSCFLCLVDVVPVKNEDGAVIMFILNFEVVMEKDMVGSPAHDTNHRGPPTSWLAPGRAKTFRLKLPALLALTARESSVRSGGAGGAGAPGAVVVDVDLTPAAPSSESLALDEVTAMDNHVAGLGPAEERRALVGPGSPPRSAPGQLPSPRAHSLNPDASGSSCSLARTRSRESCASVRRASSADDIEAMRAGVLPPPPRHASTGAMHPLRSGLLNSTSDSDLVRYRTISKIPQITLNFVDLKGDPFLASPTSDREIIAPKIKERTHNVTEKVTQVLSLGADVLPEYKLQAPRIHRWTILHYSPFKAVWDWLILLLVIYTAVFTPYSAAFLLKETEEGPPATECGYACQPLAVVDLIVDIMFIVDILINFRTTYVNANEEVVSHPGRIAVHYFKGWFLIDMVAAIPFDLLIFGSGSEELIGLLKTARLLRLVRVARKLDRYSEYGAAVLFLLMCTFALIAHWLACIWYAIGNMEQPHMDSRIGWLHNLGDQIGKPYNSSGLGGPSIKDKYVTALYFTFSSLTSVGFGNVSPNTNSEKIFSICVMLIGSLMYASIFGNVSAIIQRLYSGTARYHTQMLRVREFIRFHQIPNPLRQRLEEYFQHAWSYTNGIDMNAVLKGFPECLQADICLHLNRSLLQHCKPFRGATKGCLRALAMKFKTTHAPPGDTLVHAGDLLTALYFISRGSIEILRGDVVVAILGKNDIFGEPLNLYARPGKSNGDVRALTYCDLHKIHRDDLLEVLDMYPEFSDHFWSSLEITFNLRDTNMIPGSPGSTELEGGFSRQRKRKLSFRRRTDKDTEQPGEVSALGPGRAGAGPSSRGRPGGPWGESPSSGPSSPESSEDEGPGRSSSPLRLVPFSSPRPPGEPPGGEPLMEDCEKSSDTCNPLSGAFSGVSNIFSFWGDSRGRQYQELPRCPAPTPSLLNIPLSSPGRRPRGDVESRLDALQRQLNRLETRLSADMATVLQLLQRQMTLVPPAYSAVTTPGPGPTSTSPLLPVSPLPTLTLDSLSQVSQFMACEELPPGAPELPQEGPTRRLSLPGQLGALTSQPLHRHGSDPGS
Assay: Test 6-1: inhibitory activity for hERG channel (auto patch clamp, Qpatch)
Type: cell-based
Details: hERG-CHO cells, whole cell patch clamp, read-out: hERG inhibition IC50
attribute.measured: IC50 (nM)
Quick reminder: number only, in nM, skip the unit.

Look at this molecule and give its reported IC50. O=C1c2cnccc2CCN1CCN1CCC(c2noc3ccccc23)CC1
1100

---

Assay: Test 4: metabolic stability test in human hepatic microsome
Format: in vitro ADME
Details: 0.1 mg/mL microsome, 0.1 μmol/L compound, 37° C., 30 minutes
Label condition met when Metabolic stability in human hepatic microsome is strictly below 0.07 mL/min/mg protein; at or above that, label condition not met.

# TODO verify Metabolic stability in human hepatic microsome < 0.07 mL/min/mg protein strictly for this compound: Cc1nc2c(o1)CCN(CCN1CCN(c3noc4ccccc34)CC1)C2=O
condition met

Next record, please: O=C1c2oc(C3CC3)nc2CCC1CCN1CCN(c2nsc3ccccc23)CC1 (stereo not shown)
condition not met

Same again, this time with COc1ccc2c(n1)C(=O)N(CCN1CCN(c3noc4ccccc34)CC1)CC2
condition not met

And Cc1noc2c1C(=O)N(CCN1CCN(c3noc4ccccc34)CC1)CCC2 ?
condition not met

# repeat for O=C1c2cnccc2CCN1CCN1CCC(c2noc3ccccc23)CC1
condition met

Now consider Cn1ncc2c1CCCC(CCN1CCN(c3noc4ccccc34)CC1)C2=O (stereo not shown) and answer again.
condition met

Please answer likewise for Cc1cc2c(o1)C(=O)N(CCN1CCN(c3nsc4ccccc34)CC1)CC2
condition met

// repeat for O=c1c2ncccc2ccn1CCN1CCN(c2nsc3cc(F)ccc23)CC1 and report
condition met

What do you get for COc1ccc2c(n1)C(=O)N(CCN1CCC(c3noc4ccccc34)CC1)CC2 ?
condition met

---

Biological target: human 5-HT2A receptor (Homo sapiens (Human), UniProt P28223)
Sequence (P28223 whole entry): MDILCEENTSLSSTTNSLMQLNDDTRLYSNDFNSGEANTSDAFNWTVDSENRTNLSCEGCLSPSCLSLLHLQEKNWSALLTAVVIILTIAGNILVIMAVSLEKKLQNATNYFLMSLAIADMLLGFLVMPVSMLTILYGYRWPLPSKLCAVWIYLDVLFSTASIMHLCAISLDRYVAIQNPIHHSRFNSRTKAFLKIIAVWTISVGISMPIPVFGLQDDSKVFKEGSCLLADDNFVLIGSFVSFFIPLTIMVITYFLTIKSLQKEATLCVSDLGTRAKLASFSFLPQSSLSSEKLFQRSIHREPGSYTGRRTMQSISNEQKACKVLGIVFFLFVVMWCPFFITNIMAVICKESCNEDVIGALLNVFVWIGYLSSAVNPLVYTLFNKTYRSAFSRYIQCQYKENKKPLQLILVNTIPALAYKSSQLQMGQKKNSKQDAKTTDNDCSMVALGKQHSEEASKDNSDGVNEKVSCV
Assay: Test 3: antagonist activity for human 5-HT2A receptor (aequorin luminescence, CHO-K1 cells)
Conditions: against 1 nmol/L 5-HT
attribute.measured: pIC50
For clarity, pIC50 is expressed as the negative log10 of concentration in mol/L.

I would be grateful if you could share the reported pIC50 for O=C1c2cnccc2CCN1CCN1CCC(c2noc3ccccc23)CC1 .
7.15

---

Biological target: human 5-HT1A receptor (Homo sapiens (Human), UniProt P08908)
Sequence (P08908 whole entry): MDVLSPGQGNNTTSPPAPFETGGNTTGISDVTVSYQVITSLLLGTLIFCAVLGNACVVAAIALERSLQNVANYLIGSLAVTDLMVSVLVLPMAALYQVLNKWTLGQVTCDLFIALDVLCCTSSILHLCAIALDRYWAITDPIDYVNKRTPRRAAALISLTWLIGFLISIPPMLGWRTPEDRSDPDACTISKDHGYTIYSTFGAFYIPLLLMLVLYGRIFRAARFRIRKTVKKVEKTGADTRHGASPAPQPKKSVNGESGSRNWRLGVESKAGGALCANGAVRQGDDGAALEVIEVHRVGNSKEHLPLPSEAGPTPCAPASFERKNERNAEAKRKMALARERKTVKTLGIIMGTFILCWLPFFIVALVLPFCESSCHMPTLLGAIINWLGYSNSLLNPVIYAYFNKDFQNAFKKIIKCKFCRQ
Test: Test 2: agonist activity for human 5-HT1A receptor ([35S]GTPγS binding)
Format: biochemical
Conditions: agonist activity in the presence of 10 μM of compound, relative to 100 μmol/L 5-HT
Cut-off 60% on Emax at 10 µM, inclusive. At or above means 1; below means 0.

For this compound, is measured Emax at 10 µM 60% or higher? O=C1c2oc(C3CC3)nc2CCC1CCN1CCN(c2nsc3ccccc23)CC1 (centres unmarked)
1

Follow-up entry: Cn1ncc2c1CCCC(CCN1CCN(c3noc4ccccc34)CC1)C2=O (centres unmarked)
0

Proceed to COc1ccc2c(N3CCN(CCN4CCc5cccnc5C4=O)CC3)noc2c1
0

O=c1c2ncccc2ccn1CCN1CCN(c2nsc3cc(F)ccc23)CC1 ?
0

Follow-up entry: Cc1cc2c(o1)C(=O)N(CCN1CCN(c3nsc4ccccc34)CC1)CC2
1

What about Cc1noc2c1C(=O)N(CCN1CCN(c3noc4ccccc34)CC1)CCC2 ?
0
